molecular target: Cytochrome P450 1A2 (Homo sapiens); test: Cytochrome panel assay with activity outcomes; conditions: recombinant CYP, pro-luciferin dealkylation, luminescence, p450-cyp1a2; series mostly up to 57.1 µM; as to activity, negative = inhibition: % is scaled to controls: 0 for no effect and ±100 for the full control effect
Among all 16,000 compounds or so, about 5,700 (36%) were called active. Roughly 24% stayed inconclusive and do not appear here. The list shows a part of the results.
Collected activity, negative = inhibition values appear next to each entry.
measure: activity, negative = inhibition

O=C(O)c1ccccc1-c1ccccc1C(=O)Nc1ccc2c(c1)Cc1ccccc1-2 ... -7.14% [at 2.29 µM] (inactive)
Nc1c(OCC(=O)O)ccc2cc(S(=O)(=O)O)ccc12 ... -5.41% [at 11.4 µM] (inactive)
Nc1ccccc1CCCC(=O)O ... 4.62% [at 11.4 µM] (inactive)
CO[C@@H]1COC(=O)[C@H](CCSC)NC(=O)C/C=C\[C@@H](C)COC(=O)[C@@H]2CCCN2C(=O)C/C=C\[C@H]1C ... 7.24% [at 11.4 µM] (inactive)
COC(=O)C/C=C\[C@@H](C)[C@@H](/C=N\O[C@@H]1O[C@H](COC(C)=O)[C@H](OC(C)=O)[C@H](OC(C)=O)[C@H]1OC(C)=O)OC ... 8.95% [at 11.4 µM] (inactive)
Nc1nc(N)c2[nH]c(CNc3ccc(C(=O)O)cc3)nc2n1 ... -9.57% [at 11.4 µM] (inactive)
COc1cc(NCCC(=O)O)c2ncccc2c1 ... -18.1% [at 11.4 µM] (inactive)
O=C(O)CCSc1ncnc2nc[nH]c12 ... -3.4% [at 11.4 µM] (inactive)
NCc1nnn(Cc2ccccc2)c1N ... 2.27% [at 11.4 µM] (inactive)
O=C(Nc1cccc2cccnc12)[C@@H]1[C@@H](C(=O)O)[C@H]2CC[C@@H]1O2 ... -11% [at 11.4 µM] (inactive)
Cc1ccc(C)c(/C(=N\N=C(N)N)C2CC2)c1 ... 1.09% [at 2.29 µM] (inactive)
CCOC(=O)CCN1C(=O)[C@H]2[C@H]3[C@H](O)[C@H](O)C/C(=N/OCC(C)C)[C@@H]3CC[C@@H]2C1=O ... -8.45% [at 11.4 µM] (inactive)
COC(=O)C/C=C\[C@@H](C)[C@@H](/C=N\O[C@@H](C)c1cc(-c2c(C)cc(C)cc2C)no1)OC ... -3.54% [at 11.4 µM] (inactive)
N=c1nc(N)nc(N)n1-c1ccc(S(N)(=O)=O)cc1 ... -3.8% [at 2.29 µM] (inactive)
CCC[C@H](Sc1nc(N)nc2nc[nH]c12)C(=O)O ... -9.79% [at 11.4 µM] (inactive)
c1c[nH]c(CN2CCOCC2)n1 ... 6.41% [at 11.4 µM] (inactive)
O=C(O)CC12C[C@H]3C[C@@H](CC(O)(C3)C1)C2 ... -11.2% [at 11.4 µM] (inactive)
Cc1ccc(S(=O)(=O)N[C@H]2COC(=O)C/C=C\[C@@H](C)[C@H](NS(=O)(=O)c3ccc(C)cc3)COC(=O)[C@H](C)NC(=O)C/C=C\[C@H]2C)cc1 ... -1.96% [at 11.4 µM] (inactive)
CC1(C)N=C(N)N=C(N)N1CCCCc1ccccc1 ... -4.32% [at 2.29 µM] (inactive)
CC(C)Cn1cnc2c(Sc3c([N+](=O)[O-])ncn3C)nc(N)nc21 ... 8.13% [at 2.29 µM] (inactive)
COc1ccc(O[C@H]2C=C[C@@H](c3ccccc3)O[C@H]2COC(=O)N2CCCCC2)cc1 ... -4.44% [at 11.4 µM] (inactive)
C[C@@](N)(Cc1c[nH]c2ccccc12)C(=O)O ... -11.5% [at 11.4 µM] (inactive)
C=CC[C@@H]1C=C[C@H](O/N=C(\C)CCN2CCc3nc(-c4ccccc4)c(-c4ccccc4)cc3C2)[C@H](CO)O1 ... 5.54% [at 11.4 µM] (inactive)
Cc1cc2c(nc1C)CCCN2C[C@H](C)O/N=C1/[C@H]2O[C@@H]2[C@@H](O)[C@H]2[C@H]1CCn1c(=O)n(-c3ccccc3)c(=O)n12 ... 2.9% [at 11.4 µM] (inactive)
O=CN1CCN(C[C@H](O)CN2CCCCC2)CC1 ... -17.6% [at 2.29 µM] (inactive)
C[N+]1(CCCC[N+]2(C)CCCCCCC2)CCCCCCC1 ... -10.4% [at 2.29 µM] (inactive)
NCCc1nc(-c2nc(C(=O)O)cs2)cs1 ... -15.8% [at 11.4 µM] (inactive)
CC(C)=NO[C@@H](C)CN1CCCCc2nc(C)c(C)cc21 ... -10.5% [at 11.4 µM] (inactive)
Cc1cnc2cc(Cl)ccc2c1SCC(=O)O ... -2.26% [at 2.29 µM] (inactive)
CS[C@@H](CC(=O)O)C(=O)O ... 6.13% [at 11.4 µM] (inactive)
C#CCCCO/N=C1/C[C@@H](O)[C@@H](O)[C@@H]2[C@@H]3C(=O)N(C4CCCCC4)C(=O)[C@H]3CC[C@@H]12 ... 1.04% [at 11.4 µM] (inactive)

* * *

molecular target: Cytochrome P450 1A2 (Homo sapiens) (UniProt P05177); assay: Cytochrome panel assay with activity outcomes; settings: recombinant CYP, pro-luciferin dealkylation, luminescence, p450-cyp1a2; series mostly up to 57.1 µM; as to activity, negative = inhibition: % is scaled to controls: 0 for no effect and ±100 for the full control effect
Sequence (P05177 whole entry, looked up): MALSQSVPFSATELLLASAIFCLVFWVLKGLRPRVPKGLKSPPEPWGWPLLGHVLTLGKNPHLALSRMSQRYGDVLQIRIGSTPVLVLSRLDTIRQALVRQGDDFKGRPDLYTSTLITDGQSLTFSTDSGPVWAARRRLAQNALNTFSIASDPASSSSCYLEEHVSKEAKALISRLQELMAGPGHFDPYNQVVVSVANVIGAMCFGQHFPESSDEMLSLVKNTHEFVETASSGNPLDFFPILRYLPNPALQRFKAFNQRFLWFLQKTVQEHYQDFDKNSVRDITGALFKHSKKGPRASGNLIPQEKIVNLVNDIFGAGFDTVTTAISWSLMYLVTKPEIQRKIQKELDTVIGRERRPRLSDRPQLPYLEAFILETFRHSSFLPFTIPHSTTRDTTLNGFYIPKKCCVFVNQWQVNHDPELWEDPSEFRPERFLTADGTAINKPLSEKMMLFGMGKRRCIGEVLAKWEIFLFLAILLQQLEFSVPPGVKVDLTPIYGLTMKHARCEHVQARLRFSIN
About 5,700 (36%) of roughly 16,000 compounds were called active. Another 24% or so got no clear call; they are omitted. Some of the results follow.
measure: activity, negative = inhibition

O=C(O)/C=C\c1c2ccc(=O)c(O)c-2oc2c(O)c(O)ccc12 ... -19.8% [at 2.29 µM] (inactive)
O=C(O)C1CC2(C1)CC(C(=O)O)C2 (centres undefined) ... -6.34% [at 2.29 µM] (inactive)
CC(C)CO/N=C1/C[C@@H](O)[C@@H](O)[C@@H]2[C@@H]3C(=O)N(C[C@@H]4CCCO4)C(=O)[C@H]3CC[C@@H]12 ... -0.346% [at 11.4 µM] (inactive)
CCN1C(=O)[C@H]2[C@H]3[C@H](O)[C@H](O)C/C(=N/NC(=O)OCc4ccccc4)[C@H]3CC[C@@H]2C1=O ... -7.29% [at 11.4 µM] (inactive)

* * *

biological target: Cytochrome P450 1A2 (Homo sapiens) (UniProt P05177); test: Cytochrome panel assay with activity outcomes; conditions: recombinant CYP, pro-luciferin dealkylation, luminescence, p450-cyp1a2; series mostly up to 57.1 µM
The campaign covered roughly 16,000 compounds. About 5,700 (36%) were called active. Another 24% or so got no clear call; they are omitted. The call rests on the fitted dose curve; in most records, active means well fitted curve in the direction sought with a large enough effect; inconclusive means small, poorly fitted or top-dose-only effect, or effect the other way; inactive means no such curve, though single readings can be large or run the other way. The list shows a part of the results.
Outcome codes: TRUE (active), FALSE (inactive)

COc1ccc(Oc2ncc3nc(CCc4ccccc4)c(=O)n(C4CC4)c3n2)cc1 ... TRUE
CCOC(=O)C1=C(C)C(c2ccccc2OC)NC(=S)N1 (stereo not given) ... FALSE
CN(C)Cc1ccccc1-c1ccc2ncnc(N(C)C)c2c1 ... TRUE
CSc1nsc(SC)c1C(=O)Nc1ccc(C)cc1 ... TRUE
Cc1cccc(C)c1NC(=O)CSc1nc(C)c(CC(=O)c2ccc(Br)cc2)c(C)c1C#N ... FALSE
Cc1ccc(-n2ncc3c2ncn2nc(-c4ccco4)nc32)c(C)c1 ... FALSE
S=C1NC2=C(C(c3ccc(Br)cc3)N1)N1CCC2CC1 (stereo not given) ... FALSE
Cc1c(C(=O)Nc2ccc(OCc3ccccc3)cc2)cccc1[N+](=O)[O-] ... FALSE
COc1ccc(CN2CCN(C(=O)CC(C)C)CC2)c(OC)c1OC ... FALSE
CN(C)c1ncc2nc(-c3ccccc3)c(=O)n(C)c2n1 ... TRUE
C[n+]1cc2c3c(ccc2c2ccc4cc5c(cc4c21)OCO5)OCO3 ... TRUE
Cc1sc2ccccc2[n+]1CCC(C)S(=O)(=O)[O-] (stereo not given) ... FALSE
COc1ncc2nc(CCc3ccccc3)c(=O)n(C3CC3)c2n1 ... TRUE
CN(C)Cc1ccccc1-c1ccc2ncnc(NC3CCNCC3)c2c1 ... FALSE
CN(C)CCOC(=O)[C@@H](c1ccccc1)C1(O)CCCC1 ... FALSE
CCCN(C(=S)Nc1ccccc1)C1CCS(=O)(=O)C1 (stereo not given) ... FALSE
CCOC(=O)N1CCC(NS(=O)(=O)c2ccc3c(c2)C(C)(C)C(=O)N3C)CC1 ... FALSE
CN1C(=O)NC(c2ccc(O)cc2)C(C(=O)c2cccs2)C1(O)C(F)(F)F (stereo not given) ... FALSE
CN(C(=S)Nc1ccccc1F)C1(c2ccccc2Cl)CCCCC1=O (stereo not given) ... FALSE
CC(C)(C)n1nc(-c2ccc(Cl)cc2)c2c(N)ncnc21 ... TRUE
CCOC(=O)c1[nH]c(COC(=O)CCOc2ccccc2OC)c(C(=O)OCC)c1C ... TRUE
CN(C)c1ncc2nc(-c3ccc(F)cc3)c(=O)n(C)c2n1 ... TRUE
NC(=O)C1(NC(=O)[C@@H]2CC3(CC(c4cccc(NC(=O)c5cc([N+](=O)[O-])cc([N+](=O)[O-])c5)c4)=NO3)CN2C(=O)c2ccccc2)CC1 (stereo not given in full) ... FALSE
Cc1noc(C)c1C(=O)N1CCC[C@@]2(CCN(Cc3ccccc3)C2)C1 ... FALSE
C#CCSc1nnc(-c2sc(-c3ccccc3)nc2C)n1C ... TRUE
CN(C)Cc1ccccc1-c1ccc2ncnc(NCc3ccccc3)c2c1 ... TRUE
CNCCCCCCCCSc1nc(C(C)C)ccc1C(=O)c1cccs1 ... TRUE
Oc1ccc(OCc2ccccc2)cc1 ... TRUE
CC(=O)NCCNc1nc(-c2ccc(N(C)C)cc2)nc2ccccc12 ... TRUE
CCC(=O)N1CCc2cc(S(=O)(=O)NC(C(=O)NCc3ccc(F)cc3)C(C)C)ccc21 (stereo not given) ... FALSE
CCN(C(=S)Nc1ccccc1F)C1CCCCC1 ... TRUE
Brc1ccc(-c2csc(N3CCC(c4ccccc4)C3)n2)cc1 (stereo not given) ... TRUE
C[C@@H]1O[C@@H](n2cc(F)c(=O)[nH]c2=O)[C@H](O)[C@@H]1O ... FALSE
Cc1cc(C)c(C#N)c(OCC(=O)c2ccc(Br)cc2)n1 ... TRUE
CC(C)NC(=O)N1CC[C@@]2(CCCN(S(C)(=O)=O)C2)C1 ... FALSE
COCCNC(=O)CCn1nc(-c2ccc(Cl)cc2)ccc1=O ... FALSE
Cn1c(CN2CCOCC2)nnc1SCc1ccccc1 ... FALSE
COCCNC(=O)c1sc2nc(-c3ccccc3)cn2c1C ... TRUE
CC(C)(C)Cn1nc(-c2ccc(Cl)cc2)c2c(N)ncnc21 ... TRUE
Clc1ccc(-c2csc(N3CCC(c4ccccc4)C3)n2)cc1 (stereo not given) ... TRUE
